Provenance of the data: PubChem BioAssay AID1345082

Assay: Cytotoxic Profiling in NIH 3T3 Cell Line of Diverse Libraries Using Quantitative High-Throughput Screening; note: nearly all actives have a fitted effect of over 55% in size; note: potency is the fitted concentration of half-maximal effect
Details: NIH 3T3 viability, CellTiter-Glo ATP luminescence, 48-72 h; series mostly up to 96.7 µM
The whole screen tested about 94,000 compounds, of which about 4,000 (4.3%) were called active. About 29% were inconclusive and are not listed. The full list was thinned out, with actives kept by preference.
Recorded Endpoint: Potency

Look over these answered cases.
COCC(=O)N[C@H]1CO[C@H]2[C@@H]1OC[C@@H]2Nc1nccc(C(C)(C)C)n1 ... inactive
CC(C)C[C@@H]1N[C@H](C(=O)NC(C)C)Cc2c[nH]c3cccc1c23 ... 100 µM (active)
Cc1ccc(-n2nc3n(c2=O)CCN(C(=O)C(C)(C)C)C3)cc1 ... 50.1 µM (active)
O=C1CC2(CCN(C(=O)C3CCN(C(=O)Cc4ccc(F)cc4)CC3)CC2)Oc2ccccc2N1 ... inactive
Cc1cc(C(=O)NCC(C)C)c2c(C3CCNC3)noc2n1 (stereo not given) ... inactive
Cc1ccc(-n2nc3n(c2=O)CCN(C(=O)Cc2ccccn2)C3)cc1 ... inactive
COc1ccc(CNC(=O)c2cccc3c2CCN3C(=O)c2ccc(F)cc2)cc1OC ... 39.8 µM (active)
O=C(C1CC1)N1CCn2c(nn(-c3ccc(F)cc3)c2=O)C1 ... inactive
Cc1ccc(Nc2ccnc(N3CCCC3C(=O)N3CCC(Cc4ccccc4)CC3)n2)cc1 (stereo not given) ... 20 µM (active)

Read the next record carefully.
Per the records, this compound ( `COc1ccc(CNC(=O)c2c(C)sc3ccn(CC(C)C)c(=O)c23)cc1OC` ) has Potency equal to inactive
